System: adult worm aqueous extract (AWAE) aspartic protease activity
Assay: AWAE aspartic protease activity assay
Assay type: biochemical, Schistosoma mansoni
Details: aspartic protease activity of adult worm aqueous extract, with 5 µM E-64; 95% confidence interval in parentheses
Measured IC50 accompanies every entry in the list below.

MOLECULE: Fc1ccc(-c2ccc(CNCCOc3ccccn3)o2)cc1Cl [Compound 50]
INEQUALITY_SIGN: =
IC50 / µM: 77.7
--
MOLECULE: Cc1ccc(C(C)(C)C)c(OCCCNCCN)c1 [Compound 12]
INEQUALITY_SIGN: =
IC50 / µM: 315
--
MOLECULE: Cc1cccc(NS(=O)(=O)c2ccc3[nH]c(=O)c(=O)[nH]c3c2)c1 [Compound 5]
INEQUALITY_SIGN: =
IC50 / µM: 135
--
MOLECULE: Cc1cccc(NC(=O)CSc2ncnc3sc4c(c23)CCC(C)C4)c1 (stereo not shown) [Compound 19]
INEQUALITY_SIGN: >
IC50 / µM: 500
--
MOLECULE: O=C(CSc1nc2cc([N+](=O)[O-])ccc2[nH]1)Nc1ccc(F)c(F)c1 [Compound 1]
INEQUALITY_SIGN: >
IC50 / µM: 500
--
MOLECULE: N=C(Nc1ccccc1)Nc1nc(=O)cc(CSc2nc3ccccc3s2)[nH]1 [Compound 32]
INEQUALITY_SIGN: >
IC50 / µM: 500
--
MOLECULE: CCn1c2ccccc2c2cc(NC(=O)CSC3=C(C#N)C(c4ccccc4F)CC(=O)N3)ccc21 (stereo not shown) [Compound 22]
INEQUALITY_SIGN: >
IC50 / µM: 500

* * *

Molecular target: bovine cathepsin D (BtCD) (Bos taurus)
Sequence (P80209 45-390): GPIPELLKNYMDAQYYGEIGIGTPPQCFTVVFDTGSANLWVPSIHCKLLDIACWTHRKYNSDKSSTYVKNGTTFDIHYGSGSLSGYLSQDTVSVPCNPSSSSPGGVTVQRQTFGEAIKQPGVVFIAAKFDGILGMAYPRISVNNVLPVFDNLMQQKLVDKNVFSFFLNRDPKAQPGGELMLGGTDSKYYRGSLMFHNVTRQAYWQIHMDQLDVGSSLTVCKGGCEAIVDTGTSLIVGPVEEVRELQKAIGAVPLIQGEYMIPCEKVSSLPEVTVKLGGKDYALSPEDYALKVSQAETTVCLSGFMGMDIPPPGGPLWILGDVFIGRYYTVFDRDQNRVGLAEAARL
pIC50: −log10 of the molar value.
MEASUREMENT_TYPE: pIC50

COMPOUND: Cc1cccc(NS(=O)(=O)c2ccc3[nH]c(=O)c(=O)[nH]c3c2)c1 [Compound 5]
MEASUREMENT: < 3.30

* * *

Target: porcine pepsin (Sus scrofa, UniProt P00791)
Construct: purchased Difco 0151-17 / 215110
Sequence (P00791 60-385): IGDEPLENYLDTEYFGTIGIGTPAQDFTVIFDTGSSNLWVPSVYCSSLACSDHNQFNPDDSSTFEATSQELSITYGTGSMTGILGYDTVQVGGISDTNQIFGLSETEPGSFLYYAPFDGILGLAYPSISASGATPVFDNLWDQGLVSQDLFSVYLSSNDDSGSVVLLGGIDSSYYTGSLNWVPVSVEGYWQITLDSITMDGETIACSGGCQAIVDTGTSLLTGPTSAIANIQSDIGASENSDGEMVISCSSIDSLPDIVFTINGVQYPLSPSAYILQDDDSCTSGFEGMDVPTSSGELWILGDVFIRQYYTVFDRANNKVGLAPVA
Assay: Specificity assay toward porcine pepsin
Format: biochemical
Settings: 10 μM of compound; average of triplicate of single experiment, CV% in parentheses; read-out: Enzymatic activity inhibition (%) Pepsin
Threshold check on inhibition at 10 µM: at or above 30% gives MET, strictly below gives NOT MET.

MOLECULE: Cc1cccc(NC(=O)CSc2ncnc3sc4c(c23)CCC(C)C4)c1 (stereo not shown) [Compound 19]
TARGET_UNDER_TEST: porcine pepsin (Sus scrofa, UniProt P00791)
GROUP: MET
--
MOLECULE: Fc1ccc(-c2ccc(CNCCOc3ccccn3)o2)cc1Cl [Compound 50]
TARGET_UNDER_TEST: porcine pepsin (Sus scrofa, UniProt P00791)
GROUP: NOT MET
--
MOLECULE: N=C(Nc1ccccc1)Nc1nc(=O)cc(CSc2nc3ccccc3s2)[nH]1 [Compound 32]
TARGET_UNDER_TEST: porcine pepsin (Sus scrofa, UniProt P00791)
GROUP: MET
--
MOLECULE: CCn1c2ccccc2c2cc(NC(=O)CSC3=C(C#N)C(c4ccccc4F)CC(=O)N3)ccc21 (stereo not shown) [Compound 22]
TARGET_UNDER_TEST: porcine pepsin (Sus scrofa, UniProt P00791)
GROUP: NOT MET
--
MOLECULE: O=C(CSc1nc2cc([N+](=O)[O-])ccc2[nH]1)Nc1ccc(F)c(F)c1 [Compound 1]
TARGET_UNDER_TEST: porcine pepsin (Sus scrofa, UniProt P00791)
GROUP: NOT MET
--
MOLECULE: Cc1cccc(NS(=O)(=O)c2ccc3[nH]c(=O)c(=O)[nH]c3c2)c1 [Compound 5]
TARGET_UNDER_TEST: porcine pepsin (Sus scrofa, UniProt P00791)
GROUP: MET
--
MOLECULE: Cc1ccc(C(C)(C)C)c(OCCCNCCN)c1 [Compound 12]
TARGET_UNDER_TEST: porcine pepsin (Sus scrofa, UniProt P00791)
GROUP: NOT MET

* * *

Quick list: Enzymatic activity inhibition (%) AWAE per entry.
Test system: adult worm aqueous extract (AWAE) aspartic protease activity
Experiment: AWAE aspartic protease activity assay
Type: biochemical, Schistosoma mansoni
Details: 10 μM of compound; average of triplicate of single experiment, CV% in parentheses
Experimental: Preparation of adult worm aqueous extract (AWAE) - The extract was prepared from the homogenisation of 1 mL of worms, containing both male and female, in 5 mL of phosphate buffered saline (PBS) + 1% CHAPS, at pH 7.4, using a Turrax disperser. This volume of parasites is roughly equivalent to 20 adult parasites. The homogenate was centrifuged at 20,000 g for 1 hour at 4 °C, and the supernatant stored at -80 °C. […]
MEASUREMENT_TYPE: Enzymatic activity inhibition (%) AWAE

COMPOUND: Cc1cccc(NS(=O)(=O)c2ccc3[nH]c(=O)c(=O)[nH]c3c2)c1
TARGET_UNDER_TEST: adult worm aqueous extract (AWAE) aspartic protease activity
MEASUREMENT_TYPE: Enzymatic activity inhibition (%) AWAE
MEASUREMENT: 23.0 (14) %

COMPOUND: Fc1ccc(-c2ccc(CNCCOc3ccccn3)o2)cc1Cl
TARGET_UNDER_TEST: adult worm aqueous extract (AWAE) aspartic protease activity
MEASUREMENT_TYPE: Enzymatic activity inhibition (%) AWAE
MEASUREMENT: 34.5 (8) %

COMPOUND: Cc1ccc(C(C)(C)C)c(OCCCNCCN)c1
TARGET_UNDER_TEST: adult worm aqueous extract (AWAE) aspartic protease activity
MEASUREMENT_TYPE: Enzymatic activity inhibition (%) AWAE
MEASUREMENT: 32.0 (11) %

COMPOUND: CCn1c2ccccc2c2cc(NC(=O)CSC3=C(C#N)C(c4ccccc4F)CC(=O)N3)ccc21 (centres unmarked)
TARGET_UNDER_TEST: adult worm aqueous extract (AWAE) aspartic protease activity
MEASUREMENT_TYPE: Enzymatic activity inhibition (%) AWAE
MEASUREMENT: 16.0 (15) %

COMPOUND: Cc1cccc(NC(=O)CSc2ncnc3sc4c(c23)CCC(C)C4)c1 (centres unmarked)
TARGET_UNDER_TEST: adult worm aqueous extract (AWAE) aspartic protease activity
MEASUREMENT_TYPE: Enzymatic activity inhibition (%) AWAE
MEASUREMENT: 9.20 (12) %

* * *

Target: UniProt:P00791
Each record here notes measured IC50.
MEASUREMENT_TYPE: IC50 (µM)

MOLECULE: Cc1cccc(NC(=O)CSc2ncnc3sc4c(c23)CCC(C)C4)c1 (stereo not shown)
MEASUREMENT_TYPE: IC50
UNIT_SYMBOL: µM
INEQUALITY_SIGN: =
MEASUREMENT: 23.1
//
MOLECULE: Cc1cccc(NS(=O)(=O)c2ccc3[nH]c(=O)c(=O)[nH]c3c2)c1
MEASUREMENT_TYPE: IC50
UNIT_SYMBOL: µM
INEQUALITY_SIGN: =
MEASUREMENT: 92.6
//
MOLECULE: Fc1ccc(-c2ccc(CNCCOc3ccccn3)o2)cc1Cl
MEASUREMENT_TYPE: IC50
UNIT_SYMBOL: µM
INEQUALITY_SIGN: >
MEASUREMENT: 500
//
MOLECULE: Cc1ccc(C(C)(C)C)c(OCCCNCCN)c1
MEASUREMENT_TYPE: IC50
UNIT_SYMBOL: µM
INEQUALITY_SIGN: =
MEASUREMENT: 231
//
MOLECULE: N=C(Nc1ccccc1)Nc1nc(=O)cc(CSc2nc3ccccc3s2)[nH]1
MEASUREMENT_TYPE: IC50
UNIT_SYMBOL: µM
INEQUALITY_SIGN: =
MEASUREMENT: 72.5
//
MOLECULE: CCn1c2ccccc2c2cc(NC(=O)CSC3=C(C#N)C(c4ccccc4F)CC(=O)N3)ccc21 (stereo not shown)
MEASUREMENT_TYPE: IC50
UNIT_SYMBOL: µM
INEQUALITY_SIGN: =
MEASUREMENT: 38
//
MOLECULE: O=C(CSc1nc2cc([N+](=O)[O-])ccc2[nH]1)Nc1ccc(F)c(F)c1
MEASUREMENT_TYPE: IC50
UNIT_SYMBOL: µM
INEQUALITY_SIGN: >
MEASUREMENT: 500

* * *

Entries and their inhibition at 10 µM values follow.
Target: recombinant Schistosoma mansoni cathepsin D-like aspartyl protease 1 (SmCD1) (Schistosoma mansoni)
Sequence (P91802 entry or part of it): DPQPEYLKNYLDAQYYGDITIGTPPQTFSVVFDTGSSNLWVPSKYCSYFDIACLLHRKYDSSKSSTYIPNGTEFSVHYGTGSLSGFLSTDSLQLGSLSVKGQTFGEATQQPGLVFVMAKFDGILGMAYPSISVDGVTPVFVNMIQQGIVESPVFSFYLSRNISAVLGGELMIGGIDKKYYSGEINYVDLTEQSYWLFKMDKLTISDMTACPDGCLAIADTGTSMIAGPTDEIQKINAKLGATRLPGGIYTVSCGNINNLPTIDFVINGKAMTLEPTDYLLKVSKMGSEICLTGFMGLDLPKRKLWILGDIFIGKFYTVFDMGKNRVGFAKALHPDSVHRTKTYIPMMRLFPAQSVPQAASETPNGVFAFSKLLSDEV
Test: SmCD1 enzymatic assay (FRET substrate Abz-AIAF/FSRQ-EDDnp)
Assay type: biochemical
Conditions: read-out: Enzymatic activity inhibition (%) SmCD1
MEASUREMENT_TYPE: inhibition at 10 µM (%)

COMPOUND: CCn1c2ccccc2c2cc(NC(=O)CSC3=C(C#N)C(c4ccccc4F)CC(=O)N3)ccc21 (stereo not shown) [Compound 22]
MEASUREMENT_TYPE: inhibition at 10 µM
MEASUREMENT: 1.8
//
COMPOUND: Fc1ccc(-c2ccc(CNCCOc3ccccn3)o2)cc1Cl [Compound 50]
MEASUREMENT_TYPE: inhibition at 10 µM
MEASUREMENT: 3.4
//
COMPOUND: Cc1cccc(NS(=O)(=O)c2ccc3[nH]c(=O)c(=O)[nH]c3c2)c1 [Compound 5]
MEASUREMENT_TYPE: inhibition at 10 µM
MEASUREMENT: 24.3
//
COMPOUND: N=C(Nc1ccccc1)Nc1nc(=O)cc(CSc2nc3ccccc3s2)[nH]1 [Compound 32]
MEASUREMENT_TYPE: inhibition at 10 µM
MEASUREMENT: 12.2
//
COMPOUND: Cc1ccc(C(C)(C)C)c(OCCCNCCN)c1 [Compound 12]
MEASUREMENT_TYPE: inhibition at 10 µM
MEASUREMENT: -10.5
//
COMPOUND: O=C(CSc1nc2cc([N+](=O)[O-])ccc2[nH]1)Nc1ccc(F)c(F)c1 [Compound 1]
MEASUREMENT_TYPE: inhibition at 10 µM
MEASUREMENT: 0.4
//
COMPOUND: Cc1cccc(NC(=O)CSc2ncnc3sc4c(c23)CCC(C)C4)c1 (stereo not shown) [Compound 19]
MEASUREMENT_TYPE: inhibition at 10 µM
MEASUREMENT: -15.3
